Experimental system: T1, SWSAP1 (hSWS1-SWSAP1, WT);hSWS1 (Homo sapiens;Homo sapiens, UniProt Q6NVH7;Q19AV6 22-250;1-140, |)
T1 sequence 1: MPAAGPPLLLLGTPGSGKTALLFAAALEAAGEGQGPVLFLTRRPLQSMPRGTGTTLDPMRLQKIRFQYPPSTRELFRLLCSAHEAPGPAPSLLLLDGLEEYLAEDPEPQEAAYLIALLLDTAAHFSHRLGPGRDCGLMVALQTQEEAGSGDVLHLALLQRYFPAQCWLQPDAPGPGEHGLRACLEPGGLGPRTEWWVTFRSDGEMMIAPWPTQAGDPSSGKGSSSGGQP
T1 sequence 2: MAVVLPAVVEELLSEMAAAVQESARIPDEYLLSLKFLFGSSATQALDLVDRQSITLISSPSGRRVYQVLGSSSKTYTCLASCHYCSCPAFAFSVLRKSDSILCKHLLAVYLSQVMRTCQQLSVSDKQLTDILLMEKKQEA
Experimental protocol: fluorescence polarization; no nucleotide; FPA: 5 nM 6-FAM DNA, 37 C, 2 mM nucleotide where stated (buffer not given in material); EMSA: 0.05 uM 6-FAM DNA, 5%/15% native PAGE; RAD51 filaments: 2 mM ATP
Assay conditions: protein: recombinant;recombinant; tags: N-terminal 6xHis-TEV, cleaved;none; copies: 1;1; label: 3' 6-FAM on strand 1; blunt
Parameter measured: Kd (µM)
State just the number; it will be interpreted in µM.

Just so you know, measured Kd for ds39 (dsDNA) DNA 1: TTTTTTTTTTTTTTTTTTTTCTTGACAAGCTTGCGCACT DNA 2: AGTGCGCAAGCTTGTCAAGAAAAAAAAAAAAAAAAAAAA came out at 19.2
